Provide the reported SLOPE of each item.
Tested on: 1405R3
Experiment: High-throughput drug screen, CellTiter-Glo viability, 72 h
Format: cell-based, human
Conditions: 1405R3 DSRT analysis; slope of fitted dose-response curve
Protocol: The cells were seeded and incubated with a gradient of concentrations of drugs for 72 h, after which the cell viability was assessed (Supplementary Fig. 1a). […] We then quantified cell viability via the CellTiter-Glo luminescent assay according to the manufacturer’s protocol. Signal detection was carried out on a Synergy2 plate reader operated by Gen5 software (BioTek). […] Drug responses were evaluated on the basis of the drug sensitivity score (DSS), and a cutoff of ≥10 was used to define efficacy. […]
Answers are plain numbers.

Look over these answered cases.
Molecule	Reported property	Result number
CCCCCCCc1ccc(CCc2cccc(O)c2C(=O)O)cc1	SLOPE	-0.2
CCCCNNC(=O)c1ccc(Br)cc1	SLOPE	-2.5
N.N.[Cl][Pt][Cl] [Cisplatin]	SLOPE	-1.8
CC[C@H](C)n1cc(C)c2c(C(=O)NCc3c(C)cc(C)[nH]c3=O)cc(-c3ccc(N4CCNCC4)nc3)cc21	SLOPE	-0.1
Cc1cc(-c2ccccc2)cc(C(=O)NNS(=O)(=O)c2ccccc2)c1F	SLOPE	-0.1

Take each entry in turn and give its SLOPE.
1. CCC(CC)n1ccc2c(C(=O)NCc3c(C)cc(C)[nH]c3=O)cc(C#N)cc21
2. Cc1sc2c(c1C)C(c1ccc(Cl)cc1)=N[C@@H](CC(N)=O)c1nnc(C)n1-2

Reply:
-0.1
-1.2

---

system: 783C-6; experiment: High-throughput drug screen, CellTiter-Glo viability, 72 h; assay type: cell-based, human; settings: 783C-6 cells, DSS of DSRT analysis
Provide the reported DSS of each item.
One number for each entry.

Compound	DSS
Cc1cc(Nc2ccc(NC(=O)c3ccc(Nc4ccnc5ccccc45)cc3)cc2)nc(N)n1	0
C/C(=N\NC(=O)c1cccc(S(=O)(=O)N2CCOCC2)c1)c1cc(Cl)ccc1O	4.9

Take each entry in turn and give its DSS.
1. Cn1c(CCCCCCC(=O)NO)nc2cc(N(CCCl)CCCl)ccc21
2. Cl.Cn1cc(C(=O)Nc2ccc([C@@H]3C[C@H]3NCC3CC3)cc2)cn1 [T-3775440 HCl]

Reply:
1. 7.1
2. 0

---

system: 783C-6; experiment: High-throughput drug screen, CellTiter-Glo viability, 72 h; format: cell-based, human; conditions: 783C-6 cells, slope of fitted dose-response curve
Reported property: SLOPE
One number for each entry.

Look over these answered cases.
Compound	SLOPE
CCCCNNC(=O)c1ccc(Br)cc1	-2.4
CNCCN1CCC(OCc2ccccc2)CC1	-1
CC(C)(CNC(=O)c1cccc(-c2noc(C(F)(F)F)n2)c1)c1coc(-c2ccccc2)n1	-0.9
CCCC(=O)[O-].[Na+] [Sodium butyrate]	-0.1
CCCCCCCCCCCCCC(=S)NCCCC[C@H](NC(=O)OCc1ccccc1)C(=O)Nc1ccccc1	-1

Take each entry in turn and give its SLOPE.
1. COc1ccccc1S(=O)(=O)Nc1ccc2c(c1)CN(C)C(=O)N2
2. CCCCNNC(=O)c1ccc(-c2cccc(F)c2F)cc1
3. O=C(O)C(Cc1c[nH]c2ccccc12)N1C(=O)c2ccccc2C1=O (centres unmarked)
4. O=C(Nc1ccc(O)c(C(=O)O)c1)c1cccc(NC(=O)c2ccco2)c1
5. COc1cc2nc(N3CCCC3)nc(NCCCCCN3CCCC3)c2cc1OC

Reply:
1: -2.5; 2: -2.5; 3: -0.1; 4: -0.3; 5: -2.5

Take each entry in turn and give its SLOPE.
1. N#Cc1c(-c2ccccc2)cc(-c2cc(Br)ccc2O)[nH]c1=O
2. Cc1cc(Nc2ccc(NC(=O)c3ccc(Nc4ccnc5ccccc45)cc3)cc2)nc(N)n1
3. C/C(=N\NC(=O)c1cccc(S(=O)(=O)N2CCOCC2)c1)c1cc(Cl)ccc1O
4. Cc1cc(-c2ccccc2)cc(C(=O)NNS(=O)(=O)c2ccccc2)c1F

Reply:
[-0.4, -1, -2.5, -1]
